Source: ChEMBL document CHEMBL3785019

- Tested on: HepG2
- assay details: Cytotoxicity against human HepG2 cells after 48 hrs by MTT assay
- Format: functional, cell-based
- test settings: hepg2

| compound | IC50 |
| --- | --- |
| CC1CC(C)CN(CC(=O)N2N=C(c3cc4ccccc4oc3=O)CC2c2ccccc2)C1 (centres undefined) | Not Active |
| CC1CCCN(CC(=O)N2N=C(c3cc4ccccc4oc3=O)CC2c2ccccc2)C1 (centres undefined) | Not Active |
| CC(=O)Oc1ccccc1C1CC(C)=NN1C(=O)CN1CCCCC1C (centres undefined) | Not Active |
| O=C(CN1CCC(c2ccccc2)CC1)N1N=C(c2cc3ccccc3oc2=O)CC1c1ccccc1 (centres undefined) | Not Active |

###

Recorded pIC50 by entry
- Test system: HepG2
- assay details: Cytotoxicity against human HepG2 cells after 48 hrs by MTT assay
- Type: functional, cell-based
- test settings: Homo sapiens, HepG2, 48 h; read-out: IC50
Remember, pIC50 is on a log scale: it is -log10 of the molar concentration.

Before answering, review these 5 worked examples.
| molecule | experimental value |
| --- | --- |
| CC1=NN(C(=O)CN2CCSCC2)C(c2ccccc2O)C1 (stereo unspecified) | 4.34 |
| CCN(CC)CC(=O)N1N=C(c2cc3ccccc3oc2=O)CC1c1ccccc1 (stereo unspecified) | 4.94 |
| CC1=NN(C(=O)CN2CCCC(C)C2)C(c2ccccc2O)C1 (stereo unspecified) | 4.75 |
| O=C(c1ccccc1)N1N=C(c2cc3ccccc3oc2=O)CC1c1ccccc1 (stereo unspecified) | 4.44 |
| O=C(c1ccccc1Cl)N1N=C(c2cc3ccccc3oc2=O)CC1c1ccccc1 (stereo unspecified) | 5.26 |

Please look at the following molecule next.
Ask: For CC1=NN(C(=O)CN(C(C)C)C(C)C)C(c2ccccc2O)C1 (stereo unspecified) , what is its reported pIC50?
Reply: 4.82
